Measured Inhibition, listed per entry for reference.
# System: Plasmodium falciparum
# Test Details: GSK_TCMDC: Inhibition of Plasmodium falciparum Dd2 in whole red blood cells, using parasite LDH activity as an index of growth. Test compounds present at 2uM
# Format: functional
Please state the figure in %; there is no need to write the unit.

Some compounds with known Inhibition results, for comparison:
- Compound: "O=C(NC1CCC(CN2CCC(c3c[nH]c4ccccc34)CC2)CC1)c1cc2ccccc2o1 (centres undefined)"
  Target System: "Plasmodium falciparum"
  Display Unit: "%"
  Inhibition: 14
- Compound: "Br.CCCCCCCSc1ccc(CC(C)NCC(O)c2cccc(Cl)c2)cc1 (centres undefined)"
  Target System: "Plasmodium falciparum"
  Display Unit: "%"
  Inhibition: 99
- Compound: "CS(=O)(=O)Nc1ccc2[nH]cc(C3CCN(CC4CCC(NC(=O)/C=C/c5ccc(Cl)c(Cl)c5)CC4)CC3)c2c1 (centres undefined)"
  Target System: "Plasmodium falciparum"
  Display Unit: "%"
  Inhibition: 86
- Compound: "COc1cccc(CC(C)NCC(O)c2cccc(Cl)c2)c1.Cl (centres undefined)"
  Target System: "Plasmodium falciparum"
  Display Unit: "%"
  Inhibition: 76
- Compound: "CCN(CC)CCN1C(=O)C(O)(c2ccccc2Cl)c2c1cc(C(N)=O)cc2C(F)(F)F.Cl (centres undefined)"
  Target System: "Plasmodium falciparum"
  Display Unit: "%"
  Inhibition: 86
- Compound: "Cc1cc(O)cc2c(C3CCN(CC4CCN(C(=O)/C=C/c5ccc(Cl)c(Cl)c5)CC4)CC3)c[nH]c12"
  Target System: "Plasmodium falciparum"
  Display Unit: "%"
  Inhibition: 100
- Compound: "CN(CC(=O)N1CCN(S(=O)(=O)c2cccc(Cl)c2)CC1CN1CCCC1)c1ccc(Cl)c(Cl)c1 (centres undefined)"
  Target System: "Plasmodium falciparum"
  Display Unit: "%"
  Inhibition: 32
- Compound: "CC(NC(C)(C)C)C(O)c1ccc(Cl)c(C(F)(F)F)c1.Cl (centres undefined)"
  Target System: "Plasmodium falciparum"
  Display Unit: "%"
  Inhibition: 97
- Compound: "Cc1cc2ccc(CNCCc3ccccc3Br)cc2nc1N.Cl"
  Target System: "Plasmodium falciparum"
  Display Unit: "%"
  Inhibition: 48
- Compound: "Cc1ccc(CC(C)NCC(O)c2cccc(C#N)c2)cc1 (centres undefined)"
  Target System: "Plasmodium falciparum"
  Display Unit: "%"
  Inhibition: 86

Query string: Given `CN1C(=O)OC[C@@H]1Cc1ccc2[nH]cc(C3=CCN(Cc4ccccc4)CC3)c2c1` , state its recorded Inhibition.
Result string: 66

Query string: Query (compound): C[C@@H]1C[C@@H]([C@H](O)CC2CC(=O)NC(=O)C2)C(=O)[C@@H](C)C1 [CYCLOHEXIMIDE] ; field requested: Inhibition
Result string: 87

Query string: Please report the recorded Inhibition for `CCN1CCC(N2CCC(n3c(C)nc4cc(C(F)(F)F)ccc43)CC2)CC1` .
Result string: 16

Query string: State the recorded Inhibition for this entry: `CN1CC=C(c2csc3ccc(NC(=O)Nc4ccc(-c5ccncc5)c(Cl)c4)cc23)CC1`
Result string: 100
